molecular target: Substance P (SP) (UniProt P20366); sequence: RPKPQQFFGLM; conditions: equilibrium dialysis rough estimate, 20 uM RNA, fraction bound 0.017
outcomeMeasure: Kd (µM)
Record the value in µM, omitting the unit from your answer.

# value lookup — system Substance P (SP) (UniProt P20366), readout Kd, item GGGAGCUCAGAAUAAACGCUCAANNNNNNNNNNNNNNNNNNNNNNNNNNNNNNNNNNNNNNNNNNNNNNNNNNNNNNNNNNNNUUCGACAUGAGGCCCGGAUCCGGC [Unselected random 60N RNA pool]
1200
